Below, each entry is listed with its recorded Kp uu at 1 h.
# Assay: Unbound brain-to-plasma concentration ratio in mouse at 10 mg/kg, po after 1 hr
# Type: ADME, organism-based
# Set-up: dose 10 mg/kg, route oral
# Condition Set: brain and plasma (unbound), read-out: K(p,uu,brain)
Answer with a number only.

These solved cases illustrate the format of a correct answer.
[[record]]
compound = "CN1C(=O)C2(CC(C)(C)Oc3ccc(-c4cc(F)cc(Cl)c4)cc32)N=C1N (racemic)"
recorded_result = 0.09

[[record]]
compound = "CN1C(=O)C2(CC(C)(C)Cc3ccc(-c4cccnc4F)cc32)N=C1N (racemic)"
recorded_result = 0.08


Prompt line: Provide one value: measured Kp uu at 1 h of CC1(C)Cc2ccc(-c3cncnc3)cc2C2(COC(N)=N2)C1 (racemic)
Response line: 1

Prompt line: Output Kp uu at 1 h of CN1C(=O)C2(CC(C)(C)Sc3ccc(-c4cc(F)cc(Cl)c4)cc32)N=C1N (racemic)
Response line: 0.29

###

Cp(f) listing for selected molecules.
# Tested on: Plasma
# Assay: Free plasma concentration in mouse at 10 mg/kg, po after 4 hrs
# Type: ADME, organism-based
# Parameters: dose 10 mg/kg, route oral
# Condition Set: in vivo
Reply with the number and its unit after it.

Consider the worked cases shown below.
[[record]]
molecule = "CN1C(=O)C2(CC(C)(C)Oc3ccc(-c4cc(F)cc(Cl)c4)cc32)N=C1N (racemic)"
recorded_result = "32 nM"

[[record]]
molecule = "CC1(C)Cc2ccc(-c3cncnc3)cc2C2(COC(N)=N2)C1 (racemic)"
recorded_result = "12 nM"


Prompt line: # return Cp(f) for CN1C(=O)C2(CC(C)(C)Cc3ccc(-c4cccnc4F)cc32)N=C1N (racemic) , test system: Plasma
Response line: 29 nM

Prompt line: Answer briefly: Cp(f) recorded on Plasma for CN1C(=O)C2(CC(C)(C)Sc3ccc(-c4cc(F)cc(Cl)c4)cc32)N=C1N (racemic)
Response line: 3.6 nM

###

# Test system: Plasma
# Assay: Free plasma concentration in mouse at 10 mg/kg, po after 1 hr
# Type: ADME, organism-based
# Parameters: dose 10 mg/kg, route oral
# Condition Set: in vivo
Endpoint Label: Cp(f)

Examples with answers:
[[record]]
compound = "CN1C(=O)C2(CC(C)(C)Sc3ccc(-c4cc(F)cc(Cl)c4)cc32)N=C1N (racemic)"
endpoint_label = "Cp(f)"
recorded_result = "2.2 nM"

[[record]]
compound = "CN1C(=O)C2(CC(C)(C)Oc3ccc(-c4cc(F)cc(Cl)c4)cc32)N=C1N (racemic)"
endpoint_label = "Cp(f)"
recorded_result = "42 nM"

[[record]]
compound = "CN1C(=O)C2(CC(C)(C)Cc3ccc(-c4cccnc4F)cc32)N=C1N (racemic)"
endpoint_label = "Cp(f)"
recorded_result = "47 nM"


// moving on: another record for Cp(f)
Prompt line: Give Cp(f) for CC1(C)Cc2ccc(-c3cncnc3)cc2C2(COC(N)=N2)C1 (racemic)
Response line: 120 nM

###

# Assay: Drug uptake in Hartley guinea pig CSF at 50 mg/kg, po formulated with 40/10/50 PEG/ethanol/H2O after 3 hrs
# Assay type: ADME, organism-based, Cavia porcellus, Cerebrospinal fluid
# Design: dose 50 mg/kg, route oral
# Condition Set: read-out: Drug uptake
Endpoint Label: concentration at 3 h

Prompt line: // fetch concentration at 3 h given entry `CC1(C)Cc2ccc(-c3cncnc3)cc2[C@@]2(COC(N)=N2)C1`
Response line: 888 nM

###

Recorded bioavailability by entry
# Assay: Oral bioavailability in mouse at 10 mg/kg
# Type: ADME, organism-based
# Condition Set: in vivo
Write the number in % without appending the unit.

[[record]]
molecule = "CN1C(=O)C2(CC(C)(C)Cc3ccc(-c4cccnc4F)cc32)N=C1N (racemic)"
recorded_result = 62

[[record]]
molecule = "CN1C(=O)C2(CC(C)(C)Sc3ccc(-c4cc(F)cc(Cl)c4)cc32)N=C1N (racemic)"
recorded_result = 52

[[record]]
molecule = "CN1C(=O)C2(CC(C)(C)Oc3ccc(-c4cc(F)cc(Cl)c4)cc32)N=C1N (racemic)"
recorded_result = 79


Then this molecule:
Prompt line: Give me measured bioavailability, please, for this molecule: CC1(C)Cc2ccc(-c3cncnc3)cc2C2(COC(N)=N2)C1 (racemic)
Response line: 34

###

# System: Brain
# Assay: Free drug level in mouse brain at 10 mg/kg, po after 1 hr
# Type: ADME, organism-based
# Parameters: dose 10 mg/kg, route oral
# Condition Set: in vivo
Endpoint Label: Drug uptake(free) (nM)
Value expressed in nM; do not type the unit.

Answered examples (3):
[[record]]
compound = "CC1(C)Cc2ccc(-c3cncnc3)cc2C2(COC(N)=N2)C1 (racemic)"
endpoint_label = "Drug uptake(free)"
unit_text = "nM"
recorded_result = 120

[[record]]
compound = "CN1C(=O)C2(CC(C)(C)Oc3ccc(-c4cc(F)cc(Cl)c4)cc32)N=C1N (racemic)"
endpoint_label = "Drug uptake(free)"
unit_text = "nM"
recorded_result = 3.8

[[record]]
compound = "CN1C(=O)C2(CC(C)(C)Sc3ccc(-c4cc(F)cc(Cl)c4)cc32)N=C1N (racemic)"
endpoint_label = "Drug uptake(free)"
unit_text = "nM"
recorded_result = 0.7


Now turn to the next compound.
Prompt line: Answer with reported Drug uptake(free) of CN1C(=O)C2(CC(C)(C)Cc3ccc(-c4cccnc4F)cc32)N=C1N (racemic)
Response line: 3.7

###

# Assay: Clearance in mouse at 3 mg/kg, iv and 10 mg/kg, po
# Format: ADME, organism-based
# Condition Set: in vivo
Listing: clearance of selected compounds
API: value field is a number in mL/min/kg; no unit string.

Look over these answered cases.
[[record]]
compound = "CC1(C)Cc2ccc(-c3cncnc3)cc2C2(COC(N)=N2)C1 (racemic)"
endpoint_label = "clearance"
recorded_result = 126

[[record]]
compound = "CN1C(=O)C2(CC(C)(C)Oc3ccc(-c4cc(F)cc(Cl)c4)cc32)N=C1N (racemic)"
endpoint_label = "clearance"
recorded_result = 12


Prompt line: Return the recorded clearance value; entry: CN1C(=O)C2(CC(C)(C)Cc3ccc(-c4cccnc4F)cc32)N=C1N (racemic)
Response line: 67

Prompt line: Identify the reported clearance for the following entry. CN1C(=O)C2(CC(C)(C)Sc3ccc(-c4cc(F)cc(Cl)c4)cc32)N=C1N (racemic)
Response line: 69

###

# Assay: Clearance in human liver microsomes at 1 uM after 20 mins by LC-MS/MS analysis in presence of NADPH
# Assay type: ADME, Microsome
Known CLhep predicted at 1 µM of a selection of compounds
Answer with a number only, understood to be in mL/min/kg.

[[record]]
mol = "CC1(C)Cc2ccc(-c3cncnc3)cc2[C@@]2(COC(N)=N2)C1"
recorded_result = 3


Prompt line: Report CLhep predicted at 1 µM, nothing else, for this compound: `CN1C(=O)[C@]2(CC(C)(C)Cc3ccc(-c4cccnc4F)cc32)N=C1N`
Response line: 3

###

# Assay: Clearance in rat liver microsomes at 1 uM after 20 mins by LC-MS/MS analysis in presence of NADPH
# Format: ADME, Microsome
Endpoint Label: CLhep predicted at 1 µM (mL/min/kg)
Respond with the bare value in mL/min/kg.

[[record]]
mol = "CN1C(=O)[C@]2(CC(C)(C)Cc3ccc(-c4cccnc4F)cc32)N=C1N"
endpoint_label = "CLhep predicted at 1 µM"
recorded_result = 60


Prompt line: Hello, please tell me recorded CLhep predicted at 1 µM for this one: `CC1(C)Cc2ccc(-c3cncnc3)cc2[C@@]2(COC(N)=N2)C1`
Response line: 28

###

# Test system: Brain
# Assay: Free drug level in mouse brain at 10 mg/kg, po after 4 hrs
# Assay type: ADME, organism-based
# Parameters: dose 10 mg/kg, route oral
# Condition Set: in vivo
Endpoint Label: Drug uptake(free) (nM)
Numbers only here, please. The scale is nM.

Field: example entries. Status: answers known.
[[record]]
compound = "CN1C(=O)C2(CC(C)(C)Cc3ccc(-c4cccnc4F)cc32)N=C1N (racemic)"
recorded_result = 5.1

[[record]]
compound = "CN1C(=O)C2(CC(C)(C)Sc3ccc(-c4cc(F)cc(Cl)c4)cc32)N=C1N (racemic)"
recorded_result = 1.6

[[record]]
compound = "CC1(C)Cc2ccc(-c3cncnc3)cc2C2(COC(N)=N2)C1 (racemic)"
recorded_result = 13


Prompt line: For the compound CN1C(=O)C2(CC(C)(C)Oc3ccc(-c4cc(F)cc(Cl)c4)cc32)N=C1N (racemic) , report Drug uptake(free).
Response line: 7

###

# Assay: Drug uptake in Hartley guinea pig CSF at 75 mg/kg, po formulated with 0.5% HPMC/0.5% Tween 80 after 5 hrs
# Format: ADME, organism-based, Cavia porcellus, Cerebrospinal fluid
# Parameters: dose 75 mg/kg, route oral
# Condition Set: read-out: Drug uptake
Endpoint Label: concentration at 5 h (µM)
Write the answer as a number in µM, unit excluded.

Prompt line: Respond only with concentration at 5 h recorded for `CN1C(=O)[C@]2(CC(C)(C)Cc3ccc(-c4cccnc4F)cc32)N=C1N`
Response line: 0.02

Provenance of the data: ChEMBL document CHEMBL2346596
